Target: Polyunsaturated fatty acid 5-lipoxygenase (Homo sapiens)
Sequence (whole entry): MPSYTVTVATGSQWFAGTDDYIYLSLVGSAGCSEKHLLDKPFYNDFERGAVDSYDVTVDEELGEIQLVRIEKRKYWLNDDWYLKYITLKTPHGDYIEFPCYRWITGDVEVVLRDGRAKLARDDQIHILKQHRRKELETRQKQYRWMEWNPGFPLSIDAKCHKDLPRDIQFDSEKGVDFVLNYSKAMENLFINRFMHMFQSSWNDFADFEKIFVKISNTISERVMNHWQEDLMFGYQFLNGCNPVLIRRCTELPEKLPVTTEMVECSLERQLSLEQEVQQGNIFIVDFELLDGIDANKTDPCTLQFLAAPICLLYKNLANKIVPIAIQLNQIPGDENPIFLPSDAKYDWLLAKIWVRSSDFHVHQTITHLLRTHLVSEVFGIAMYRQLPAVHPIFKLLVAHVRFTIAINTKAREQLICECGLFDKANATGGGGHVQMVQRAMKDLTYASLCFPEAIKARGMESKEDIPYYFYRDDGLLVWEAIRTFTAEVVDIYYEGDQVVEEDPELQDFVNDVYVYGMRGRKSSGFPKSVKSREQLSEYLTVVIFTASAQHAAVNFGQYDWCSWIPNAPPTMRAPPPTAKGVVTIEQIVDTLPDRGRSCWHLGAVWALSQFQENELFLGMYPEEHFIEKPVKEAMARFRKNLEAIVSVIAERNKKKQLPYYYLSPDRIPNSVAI
Test: Inhibition of human 5-LO transfected in HEK293 cells coexpressing FLAP assessed as reduction in leukotriene formation at 1 uM using arachidonic acid as substrate preincubated for 5 mins followed by calcium ionophore A23187/arachidonic acid addition and measured after 15 mins by RP-HPLC analysis
Assay type: cell-based
The source made the active and inactive calls. No cut-off for these calls is given here.
Possible outcomes: y for active, n for inactive

> print(dat)
                                   compound  group.label
1  CC(c1cc2ccccc2s1)N(O)C(N)=O (stereo not drawn) [ZILEUTON]            y
2        O=C(/C=C/c1cc(O)ccc1O)OCCCc1ccccc1            y
3  O=C(/C=C/c1ccc(O)c(O)c1)OCCc1ccccc1 [CAFFEIC ACID PHENETHYL ESTER]            y
4         O=C(/C=C/c1cccc(O)c1O)OCCc1ccccc1            y
5              O=C(OCCc1ccccc1)c1cc(O)ccc1O            n
6        O=C(/C=C/c1cccc(O)c1O)OCCCc1ccccc1            y
7        O=C(/C=C/c1ccc(O)cc1O)OCCCc1ccccc1            n
8          O=C(/C=C/c1cc(O)ccc1O)CCc1ccccc1            y

----------
Biological target: Polyunsaturated fatty acid 5-lipoxygenase (Homo sapiens)
Test: Inhibition of 5-LO in human PMNL cells assessed as reduction in leukotriene formation at 1 uM preincubated for 5 mins followed by thapsigargin stimulation measured after 15 mins by RP-HPLC analysis relative to control
Assay type: cell-based
Calls of active or inactive are those of the source. The rule behind the calls is not given here.
readout.label: inhibition

> print(dat)
                                   molecule  readout.label  result
1       O=C(/C=C/c1ccc(O)c(O)c1)OCCc1ccccc1     inhibition  Active
2         O=C(/C=C/c1cc(O)ccc1O)OCCc1ccccc1     inhibition   > 50%
3         O=C(/C=C/c1cccc(O)c1O)OCCc1ccccc1     inhibition   > 50%
4  CC(c1cc2ccccc2s1)N(O)C(N)=O (stereo not given)     inhibition  Active
5          O=C(/C=C/c1cc(O)ccc1O)CCc1ccccc1     inhibition   > 50%

----------
Assay: Cytotoxicity against VHL-deficient human RCC10 cells assessed as reduction in cell viability incubated for 4 days by XTT assay
Type: functional, cell-based
Conditions: 96 h
readout.label: IC50 (µM)

> print(dat)
                                   molecule  readout.label  unit.name  quantitative.result
1              O=C(OCCc1ccccc1)c1cc(O)ccc1O           IC50         µM                 14.8
2          O=C(/C=C/c1cc(O)ccc1O)CCc1ccccc1           IC50         µM                  9.2
3         O=C(/C=C/c1cc(O)ccc1O)OCCc1ccccc1           IC50         µM                 5.04
4            Cc1cccc(Nc2nc(-c3ccncc3)cs2)c1           IC50         µM                  8.6
5  O=C(/C=C/c1ccc(O)c(O)c1)OCCc1ccccc1 [CAFFEIC ACID PHENETHYL ESTER]           IC50         µM                 19.8

----------
This listing pairs compounds with measured IC50.
Molecular target: UniProtKB P09917
Assay: Inhibition of 5-LO in human PMNL cells assessed as reduction in leukotriene formation preincubated for 5 mins followed by thapsigargin stimulation measured after 15 mins by RP-HPLC analysis
readout.label: IC50 (nM)

> print(dat)
                       smiles.string  quantitative.result
1  O=C(/C=C/c1cccc(O)c1O)OCCc1ccccc1                  890
2  O=C(/C=C/c1cc(O)ccc1O)OCCc1ccccc1                  330
3   O=C(/C=C/c1cc(O)ccc1O)CCc1ccccc1                  530
